- Test system: EKVX NSCLC
- assay.procedure: NCI-60 one-dose screen, 48 h (100 = growth as untreated, 0 = no growth, -100 = all killed)
- test.context: 10 µM
The panel holds about 83,000 compounds, 20% with a hit somewhere; the sample as a whole holds those more often.
Quick reference for growth among some compounds
measured.metric: growth (%)

>>> value_measured("O=C(CCCc1ccc(N(CCCl)CCCl)cc1)OCc1ccccc1")
101
>>> value_measured("CC(C)(O)/C=C/C(=O)[C@](C)(O)[C@H]1[C@H](O)C[C@@]2(C)[C@H]3CC=C4[C@@H](C[C@H](O)C(=O)C4(C)C)[C@]3(C)C(=O)C[C@]12C")
18.4
>>> value_measured("NC1CCc2cc(O)c(O)cc2C1 (centres undefined)")
93.9
>>> value_measured("CCC(C)[C@H]1C(=O)O[C@H](C(C)C)C(=O)N(C)[C@@H](C(C)C)C(=O)O[C@H](C(C)C)C(=O)N(C)[C@@H](C(C)C)C(=O)O[C@H](C(C)C)C(=O)N1C (some centres undefined)")
24

====

- System: DU-145 prostate
- assay.procedure: NCI-60 one-dose screen, 48 h (100 = growth as untreated, 0 = no growth, -100 = all killed)
- test.context: 10 µM
The panel holds about 83,000 compounds, 20% with a hit somewhere; the sample as a whole holds those more often.
measured.metric: growth (%)

>>> value_measured("N#Cc1nc(-c2ccccc2)oc1N1CCC(S(=O)(=O)F)CC1")
101
>>> value_measured("N#Cc1c(-n2c(Br)c(Br)c3cc(Br)ccc32)[nH]c2c(Br)cc(Br)cc12")
17
>>> value_measured("O=C(CCCc1ccc(N(CCCl)CCCl)cc1)OCc1ccccc1")
96.7
>>> value_measured("CC1=C2C(=C[C@@](C)(COS(C)(=O)=O)[C@@H]2O)C(=O)[C@](C)(O)C12CC2")
9.22
>>> value_measured("C[C@@H]1CCC/C=C/[C@H]2C[C@@H](O)C[C@@H]2[C@@H](O)/C=C/C(=O)O1")
28.4

====

Entries annotated with measured growth
- Test system: HL-60(TB) leukemia
- assay.procedure: NCI-60 one-dose screen, 48 h (100 = growth as untreated, 0 = no growth, -100 = all killed)
- test.context: 10 µM unless noted
The panel holds about 83,000 compounds, 20% with a hit somewhere; the sample as a whole holds those more often.
measured.metric: growth (%)

>>> value_measured("CCN1C(=O)N(CC)C2SC(N/N=C/c3ccc(F)cc3)=NC21 (stereo not given)")
2.85
>>> value_measured("Cn1c(SC(C(=O)Nc2ccc(F)cc2)c2ccccc2)nc2ccccc2c1=O (stereo not given)")
103
>>> value_measured("C#Cc1ccc(NC(=O)c2ccc(/C=C/C(=O)c3nccn3C)cc2)c(F)c1")
7.29
>>> value_measured("O=[N+]([O-])c1ccc(NC(=S)NNC(=S)Nc2ccc(F)cc2)cc1")
84.8
>>> value_measured("CCNC(=O)Oc1ccc(/C(=C(/C)c2ccc(OC)cc2)c2ccc(OCCN3CCCCCC3)cc2)cc1")
22.5
>>> value_measured("CNC(=O)c1cc(-c2ccc(NC(=S)Nc3cccc(C(F)(F)F)c3)cc2)nc2cccnc12")
109
>>> value_measured("CC(=O)O[C@@H]1C[C@H]2O[C@@H]3C=C(C)CC[C@]3(C)[C@]1(C)[C@]21CO1")
-33.9
>>> value_measured("CCCCCCCn1cc2c(N[C@H](C)c3ccccc3)ncnc2n1")
117
>>> value_measured("N#C/C(=C\\c1ccc2ccccc2c1)C(=O)Nc1sc2c(c1C#N)CCC2")
103
>>> value_measured("COc1cc2cc(Oc3ccc(NC(=O)c4cccc(C(F)(F)F)c4)cc3)c(C)nc2cc1OCCN(C)C")
97.2

====

- System: HL-60(TB) leukemia
- assay.procedure: NCI-60 one-dose screen, 48 h
- test.context: 10 µM unless noted
About 83,000 compounds went through this panel and 20% of them were active in at least one assay; those are over-represented in the sample as a whole. Active and inactive are the calls of the source. The calls were made as follows: active = growth percent below 10; inactive = the rest.
Labels: Yes (active), No (inactive)

>>> class_assignment("COc1cc(C(=O)c2cc(C(C)=O)c3c(C)cccn23)cc(OC)c1OC")
"No"
>>> class_assignment("CC[C@@](C)(NC(=O)C(C)(C)NC(=O)[C@@H](NC(=O)[C@@H]1CCCN1C(=O)C(C)(C)NC(=O)[C@H](CC(C)C)NC(=O)CNC(=O)C(C)(C)NC(=O)[C@@H](NC(=O)C(C)(C)NC(=O)[C@H](CCC(N)=O)NC(=O)[C@H](C)NC(=O)C(C)(C)NC(=O)[C@H](C)NC(=O)C(C)(C)NC(=O)[C@@H]1CCCN1C(=O)C(C)(C)NC(C)=O)C(C)C)C(C)C)C(=O)N[C@@H](CCC(N)=O)C(=O)N[C@@H](CCC(N)=O)C(=O)N[C@H](CO)Cc1ccccc1")
"Yes"
>>> class_assignment("COc1ccc(-c2nc(SCCC(C)C)nc(N/N=C\\c3ccc(O)cc3)c2C#N)cc1")
"No"
>>> class_assignment("CCOC(=O)c1c(NC(=O)c2cccc(C(F)(F)F)c2)sc2c(CN3CCN(C)CC3)c(O)ccc12")
"Yes"
>>> class_assignment("c1ccc(CNc2ncnc3ccc(-c4cnc5[nH]ncc5c4)cc23)cc1")
"No"
>>> class_assignment("Nc1nc(-c2cccc([N+](=O)[O-])c2)c(N=Nc2ccccc2[N+](=O)[O-])s1")
"No"
>>> class_assignment("COc1ccc(/C=C(\\C#N)C(=O)N2c3ccccc3Sc3ccc(SC)cc32)cc1F")
"No"
>>> class_assignment("COC(=O)C[Se]C(=O)Cc1c(C)n(C(=O)c2ccc(Cl)cc2)c2ccc(OC)cc12")
"Yes"
>>> class_assignment("Cc1cc2nc3c4cc(Cl)ccc4n(CC(=S)NCCN(C)C)c3nc2cc1C")
"Yes"
>>> class_assignment("COc1ccc(N2CCN(C3=C(Cl)C(=O)C(C)=C(C)C3=O)CC2)cc1")
"No"
>>> class_assignment("O=C(Cn1cc(CN2C(=O)c3ccc([N+](=O)[O-])cc3C2=O)nn1)Nc1ccccc1Br")
"No"
>>> class_assignment("O=S(=O)(Nc1ccc2c(c1)OCO2)c1ccc(-c2cnc(C3CC3)o2)cc1")
"Yes"
>>> class_assignment("O=S(=O)(NC1CC2CCC1C2)c1ccc2c(c1)C(=NO)c1cc(S(=O)(=O)NC3CC4CCC3C4)ccc1-2 (centres undefined)")
"Yes"
>>> class_assignment("CCCCCCCCCCCC(=O)NC(C)(C)C(=O)N1CCCC1C(=O)NC(C)(C)C(=O)NC(C)(C)C(=O)N1CCCC1C(=O)NC(C)(C)C(=O)NC(C)(C)C(=O)N1CCCC1C(=O)NC(C)C(=O)NCCC(=O)NC(C)C(=O)NC(C)(C)C(=O)NC(C)(C)C(=O)NC(C)(C)C(=O)NCCC(=O)NC(C)(C)C(=O)NC(C)(C)C(=O)NC(C)(C)C(=O)NC(C)C(=O)NCCC(=O)O (centres undefined)")
"Yes"
>>> class_assignment("CC/C(=C(/c1ccc(Cl)cc1)c1ccc(OCCN)cc1)c1ccccc1")
"No"
>>> class_assignment("COc1ccc(COc2ccc(/C=C3\\C(=O)Nc4ccccc43)cc2OC)cc1")
"No"
>>> class_assignment("Cc1nc(-c2cc3ccccc3c(N3CCN(C)CC3)n2)cs1")
"No"
>>> class_assignment("C[C@H](Nc1ncnc2ccc(-c3cnc(Cl)c(NS(C)(=O)=O)c3)cc12)c1ccccc1")
"Yes"
>>> class_assignment("COC(=O)[C@@]1(C)CC[C@]2(C)CC[C@]3(C)C(=CC(=O)[C@@H]4[C@@]5(C)Cc6c(n(CC#CCN7CCN(C)CC7)c7ccccc67)C(C)(C)[C@@H]5CC[C@]43C)[C@@H]2C1")
"Yes"
>>> class_assignment("O=C1C(SCc2ccccc2)=C(Cl)CN1c1ccccc1")
"No"
>>> class_assignment("Cc1[nH]c(C(=O)Nc2ccc(C(N)=O)cc2N2CCOC(C)C2)c(Cl)c1Cl (centres undefined)")
"No"
>>> class_assignment("O=C1[C@@H]2Cc3c([nH]c4ccccc34)[C@@H](c3ccc(Cl)cc3)N2C(=O)CN1C1CCN(Cc2ccccc2)CC1")
"Yes"
>>> class_assignment("N/C(=N\\OC(=O)CSc1nc2ccccc2s1)c1ccc2ccccc2c1")
"No"
>>> class_assignment("COc1ccc(Cn2cc3c(c2-c2ccccc2)CCCc2cnoc2-3)cc1")
"Yes"
>>> class_assignment("O=C1CSC(c2cn(-c3ccccc3)nc2-c2ccc(Cl)cc2)N1c1ccccc1 (centres undefined)")
"No"
>>> class_assignment("COc1ccc(-n2c(/C=C3\\C(=O)Nc4ccccc43)ccc2CO)cc1")
"No"
>>> class_assignment("NC1CCc2cc(O)c(O)cc2C1 (centres undefined)")
"No"
>>> class_assignment("CN1CCN(c2ccc(Nc3nc(NCCNS(=O)(=O)c4ccccc4)c4sccc4n3)cc2)CC1")
"No"
>>> class_assignment("CN1CCN(c2ccc(Nc3nc(NCCCNS(=O)(=O)c4ccc(F)cc4)c4sccc4n3)cc2)CC1")
"No"
>>> class_assignment("Cc1cc2ncc(-c3cc4ccccc4c(N4CCN(C)CC4)n3)nc2cc1C")
"Yes"
>>> class_assignment("Cn1ccnc1C(=O)/C=C/c1ccc(CNC(=O)c2ccc(F)cc2)cc1")
"Yes"
>>> class_assignment("CCCCCCN1C=C/C(=C\\C(=O)n2ccc3ccccc32)c2ccccc21")
"No"
>>> class_assignment("CC1=NC2=NN3C(=NN2C(c2ccccc2)=C1)N=NC(c1ccc(Br)cc1)=C3c1ccc(Br)cc1")
"No"
>>> class_assignment("O=C(CSc1nc2ccccc2c(=O)n1-c1ccc(Cl)c(Cl)c1)Nc1ccc(S(=O)(=O)Nc2ccc(Cl)nn2)cc1")
"No"
